B1: TRIM35 (parent)
chain: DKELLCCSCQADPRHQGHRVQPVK

Variants of: B1
Assay: protein stability index of a GFP-peptide fusion (GPS, HEK-293T) (PSI 1-6); higher = more stable;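 note: lentivirally expressed fusions sorted by FACS into six bins by GFP to DsRed ratio, PSI derived from sequencing read proportions per bin multiplied by bin number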
Conditions: c terminus: a fixed tail appended
QUANTITY KIND: protein stability index
Output spec: single numeric token, no unit.

{"columns": ["VARIANT DESCRIPTOR", "ASSAY VALUE"],
 "data": [
  ["K2H", 3.51]
]}

Task item: Name the recorded protein stability index for `C7N` .
Reply: 4.1

Task item: Field request: protein stability index | item: `K24D`
Reply: 4.05

Task item: Query (variant): `V20F` ; field requested: protein stability index
Reply: 3.48
